Some compounds, each annotated with its measured CC50.
test: Cytotoxicity against MDCK cells; assay type: cell-based, Canis lupus familiaris; details: dog
METRIC NAME: CC50 (µM)

- CHEMICAL STRING: "Cc1ccc(-c2cc(-c3ccccc3)nc(S[C@H](C)C(=O)Nc3cccc(Cl)c3)c2C#N)cc1"
  OBSERVED MEASUREMENT: 100
- CHEMICAL STRING: "COc1ccc(-c2cc(-c3ccccc3)nc(SCC(=O)Nc3ccccc3)c2C#N)cc1OC"
  OBSERVED MEASUREMENT: 100
- CHEMICAL STRING: "Cc1ccc(-c2cc(-c3ccccc3)nc(SCC(=O)Nc3cccc(Cl)c3)c2C#N)cc1"
  OBSERVED MEASUREMENT: 100

These data points were gathered from ChEMBL document CHEMBL3098103.
